# assay-remarks: gradient 5% acetonitrile 3 min, to 50% in 2 min, to 85% in 15 min, held 3 min, 100 µL/min
# condition-context: column: Zorbax Extend-C18 2.1 x 50 mm; eluents: water / acetonitrile, 0.1% formic acid
quantity-name: RP-LC retention time (s)

Recorded RP-LC retention time, per entry:
# compound, unit-symbol, readout-number
measured = [
    ("COc1cccc(-c2csc(-c3nnn(-c4ccc(C)c(C)c4)c3N)n2)c1", "s", 1170),
    ("CCc1ccccc1NC(=O)c1cc(C(C)C)n2nccc2n1", "s", 1240),
    ("CCCNC(=O)N(C1CCOCC1)C1CCN(S(=O)(=O)c2cc(F)ccc2C)CC1", "s", 897),
]

1: CCOCCCNC(=O)N1CCN(c2nnc(C)c3c(C)n(-c4ccc(C)cc4)nc23)CC1
2: O=C(C1CC1)N1CCc2sc(S(=O)(=O)N3CCN(c4ccccc4)CC3)cc2C1
Input: Compare 1 and 2 and name the one whose reported RP-LC retention time is smaller. Lab note: record the label of whichever item you select.
Output: 1
(1: 669 s, 2: 987 s)

1: Cc1cccc(NS(=O)(=O)c2cc3n(c2)CCN(CC(C)C)C3=O)c1
2: Cc1ccc(C)c(-c2cc3c(=O)n(Cc4nc(-c5ccccc5Br)no4)ncn3n2)c1
Input: Compare 1 and 2 and name the one whose reported RP-LC retention time is smaller. Lab note: record the label of whichever item you select.
Output: 1
(1: 808 s, 2: 1220 s)

---

# assay-remarks: gradient 5% acetonitrile 3 min, to 50% in 2 min, to 85% in 15 min, held 3 min, 100 µL/min
# condition-context: column: Zorbax Extend-C18 2.1 x 50 mm; eluents: water / acetonitrile, 0.1% formic acid
quantity-name: RP-LC retention time (s)

Recorded RP-LC retention time, per entry:
# molecule, RP-LC retention time [s]
measured = [
    ("CC1(C)N=C(N)N=C(N)N1c1ccc(OCCCOc2ccccc2)c(Cl)c1", 812),
    ("CCn1c(=O)sc2cc(S(=O)(=O)N3CCC(C(=O)NC4CCCCCC4)CC3)ccc21", 937),
    ("CCOc1ccccc1NC(=O)C1CCCN(c2nc3ccccc3nc2OCC)C1 (stereo not given)", 1320),
    ("CC(C)C(=O)N1CCCCCCNC(=O)[C@@H]2CCCC[C@@H]21", 777),
    ("COc1ccc(N2CC(c3noc(-c4ccc(OC)c(OC)c4)n3)CC2=O)cc1 (stereo not given)", 839),
    ("Cc1csc(NC(=O)C2CCN(S(=O)(=O)c3cc(-c4noc(C)n4)cs3)CC2)n1", 829),
]

I: O=C(C1CCN(c2cnn(Cc3ccccc3)c(=O)c2)CC1)N1CCSCC1
II: CC(=O)N1CCc2[nH]c3ccc(C(=O)NCc4ccc(N5CCCC5)cc4)cc3c2C1
Input: Compare I and II and name the one whose reported RP-LC retention time is smaller. Lab note: record the label of whichever item you select.
Output: I

1: CCCC(=O)Nc1sccc1C(N)=O
2: CCc1ccc(NS(=O)(=O)c2cc3c4c(c2)CCC(=O)N4CCC3)cc1
Input: Compare 1 and 2 and name the one whose reported RP-LC retention time is smaller. Lab note: record the label of whichever item you select.
Output: 1
(1: 625 s, 2: 906 s)

These entries and their values trace back to the METLIN SMRT retention time set (Domingo-Almenara et al. 2019).
